Assign reverse-splicing fitness to each entry below.
B1: Azoarcus group I ribozyme (parent)
chain: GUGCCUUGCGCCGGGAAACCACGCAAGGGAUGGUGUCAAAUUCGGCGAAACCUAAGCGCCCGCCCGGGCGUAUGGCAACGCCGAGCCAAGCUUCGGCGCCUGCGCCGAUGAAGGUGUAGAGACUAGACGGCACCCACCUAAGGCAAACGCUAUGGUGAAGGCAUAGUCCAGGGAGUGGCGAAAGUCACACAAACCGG

# Variants of: B1
# protocol-details: reverse-splicing fitness (ratio to wild type); higher = more active; in vitro selection; Mg2+ level not given
Numbers only.

mutation-descriptor | measure-name | numeric-readout
A145G C150U C169G U176G | reverse-splicing fitness | 0.00685
A111C A120C A145C C150A C169G U176G | reverse-splicing fitness | 0.007

Input C82A A111C A145C C169A U176G . Output reverse-splicing fitness: 0.00693

Hey, just so you know, these numbers are from the RNAGym collection of RNA variant scans (doi:10.1093/molbev/msab373).
